MEASUREMENT_NOTES: P-glycoprotein substrates identified in KB-8-5-11 adenocarcinoma cell line, qHTS therapeutic library screen (AID 1346987); also: nearly all actives have a fitted effect of over 65% in size
CONDITION_LABEL: KB-8-5-11 (P-gp overexpressing) viability, CellTiter-Glo, 72 h; series mostly up to 44.5 µM
Results filed as inconclusive are left out. Calls of active or inactive are those of the source. Calls follow the shape of the dose curve; as a rule, active = well fitted inhibition curve with a large enough effect; inconclusive = small, poorly fitted or top-dose-only effect; inactive = flat fitted curve, though single readings scatter.
Tick one outcome: active, inactive

Recorded call for COC1CC(OC2CCC3(C=O)C(CCC4C3CCC3(C)C(C5=CC(=O)OC5)CCC43O)C2)OC(C)C1O (stereo not given) ?
active

How about C=C[C@H]1CN2CCC1C[C@H]2[C@H](O)c1ccnc2ccccc12 (stereo not given in full) ?
inactive

How about CCCSc1cc(OC)c(CCN)cc1OC ?
active

How about CN1CC[C@@]23CCCC[C@@H]2[C@@H]1Cc1ccc(O)cc13 ?
inactive

How about CN(C)c1cc2c(cc1Sc1nc3c(N)nccc3n1CCNCC(C)(C)C)OCO2 ?
active
